# test-system: Histone deacetylase
# procedure-text: Inhibition of histone deacetylase (HDAC) activity in HeLa cell nuclear extract
# Assay type: cell-based, Homo sapiens
observable: IC50 (nM)

QUERY: Reported IC50, compound O=C(CCCCc1ccc(Cl)cc1)NO : ____
RESULT: 2580

QUERY: Next up: CC(/C=C/C(=O)NO)=C\c1ccc(N(C)C)cc1
RESULT: 788

QUERY: Next up: CC(/C=C/C(=O)NO)=C\c1ccc(NS(=O)(=O)c2ccccc2)cc1
RESULT: 172

QUERY: Next up: CN(C)c1ccc(/C=C/C=C/C(=O)NO)cc1
RESULT: 1700

QUERY: Next up: CC(CCC(=O)NO)Cc1ccc(NS(=O)(=O)c2ccc(Cl)cc2)cc1 (configuration not stated)
RESULT: 1170

1. COc1ccc(S(=O)(=O)Nc2ccc(/C=C(C)/C=C/C(=O)NO)cc2)cc1
2. O=C(/C=C/C=C/c1ccccc1)NO
QUERY: When the recorded IC50 values are compared, which is smaller: that of 1 or that of 2 ? // respond with label for picked entry
RESULT: 1
(1: 74 nM, 2: 279 nM)

----------
# test-system: Histone deacetylase
# procedure-text: Inhibition of histone deacetylase (HDAC) activity in HeLa cell nuclear extract
# Format: cell-based, Homo sapiens
observable: IC50 (nM)

1. CC(/C=C/C(=O)NO)=C\c1ccc(NS(=O)(=O)c2ccc(Cl)cc2)cc1
2. COc1ccc(S(=O)(=O)Nc2ccc(/C=C/C=C/C(=O)NO)cc2)cc1
3. O=C(/C=C/C=C/c1ccc(Cl)cc1)NO
QUERY: Order the records by IC50, with each subsequent value no larger than the one before. Respond with the label ranking, as requested.
RESULT: 2, 3, 1
(2: 10400 nM, 3: 252 nM, 1: 49 nM)
